assay-overview: Substrate depletion assay in cryopreserved human hepatocytes (CPHH)
Assay type: in vitro ADME
applied-conditions: pooled cryopreserved human hepatocytes, pH 7.3, test conc. 1×10^−6 M, n = 3
Procedure: Microsomal stability was determined for the TbB ligands by monitoring the presence of compound after incubation in CPHH and HLM, as shown in Figure 7 and Figure S18 of the Supporting Information. […] From the plot shown in Figure S18 of the Supporting Information, it can be inferred that the TbB ligands undergo slow biotransformation in HLM. […] Intrinsic clearance (CLint) is measured using the substrate depletion method. […]
readout-type: hepatocyte CLint
Remember to put the unit after the number in your answer.

## Task Tell me the measured hepatocyte CLint of Cc1cc(-c2nnn(-c3cc(C)c(O)c(C)c3)n2)cc(C)c1O , please.
## Result 18.4 µL/min/1e6 cells

***
## Task Tell me the measured hepatocyte CLint of COc1cc(-c2nnn(-c3cc(OC)c(O)c(OC)c3)n2)cc(OC)c1O , please.
## Result 29.8 µL/min/1e6 cells

## Task Tell me the measured hepatocyte CLint of Oc1ccc(-c2nnn(-c3ccc(O)cc3)n2)cc1 , please.
## Result 27.8 µL/min/1e6 cells

---

study-system: CYP2D6 (Homo sapiens)
Construct: Using HLM as the enzyme source; from tissue; host or cells: human liver microsomes
Sequence (P10635 whole entry): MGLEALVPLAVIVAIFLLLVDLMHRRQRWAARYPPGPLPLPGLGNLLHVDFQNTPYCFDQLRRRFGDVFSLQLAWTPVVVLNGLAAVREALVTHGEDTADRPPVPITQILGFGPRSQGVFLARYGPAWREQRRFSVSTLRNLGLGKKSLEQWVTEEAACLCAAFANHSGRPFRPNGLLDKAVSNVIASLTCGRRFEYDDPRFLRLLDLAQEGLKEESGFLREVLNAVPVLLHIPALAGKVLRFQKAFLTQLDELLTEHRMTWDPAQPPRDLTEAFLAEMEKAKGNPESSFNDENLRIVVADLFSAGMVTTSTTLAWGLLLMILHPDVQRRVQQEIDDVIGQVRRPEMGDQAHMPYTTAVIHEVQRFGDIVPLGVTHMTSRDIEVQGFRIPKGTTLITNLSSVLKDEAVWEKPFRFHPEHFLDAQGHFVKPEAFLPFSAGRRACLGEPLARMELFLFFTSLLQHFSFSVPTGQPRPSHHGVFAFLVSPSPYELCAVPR
assay-overview: Single concentration Kobs assay (time-dependent inhibition) in HLM
Format: biochemical
applied-conditions: human, human liver microsomes; single concentration, 30 min; significant if >50%; read-out: 2D6 R_Inh% (reversible inhibition)
Method: CYP inhibition evaluation is typically performed by either IC50 at single-point or IC50 Shift or abbreviated assay such as the first-order inactivity rate constant (K obs ) at single concentration. This method yielded good correlations between the percent inhibition at 10 or 25 μ M and kinact/KI. Evaluation of TD inhibition at single concentration has been implemented in several drug discovery programs. […] The data obtained from single-concentration K obs studies were analyzed to understand the same. […]
readout-type: inhibition at 30 min

Answered cases to consult:
## Task Tell me the measured inhibition at 30 min of Oc1ccc(-c2nnn(-c3ccc(O)cc3)n2)cc1 [223-10] , please.
## Result < 50%

## Task Tell me the measured inhibition at 30 min of Cc1cc(-c2nnn(-c3cc(C)c(O)c(C)c3)n2)cc(C)c1O [223-3] , please.
## Result < 50%

***
## Task Tell me the measured inhibition at 30 min of COc1cc(-c2nnn(-c3cc(OC)c(O)c(OC)c3)n2)cc(OC)c1O [223-2] , please.
## Result < 50%

---

Recorded inhibition at 30 min for the following molecules
study-system: CYP2C19 (Homo sapiens)
Construct: Using HLM as the enzyme source; from tissue; host or cells: human liver microsomes
assay-overview: Single concentration Kobs assay (time-dependent inhibition) in HLM
Assay type: biochemical
applied-conditions: human, human liver microsomes; single concentration, 30 min; significant if >50%; read-out: 2C19 R_Inh% (reversible inhibition)

Answered cases to consult:
## Task Tell me the measured inhibition at 30 min of Oc1ccc(-c2nnn(-c3ccc(O)cc3)n2)cc1 , please.
## Result < 50%

## Task Tell me the measured inhibition at 30 min of Cc1cc(-c2nnn(-c3cc(C)c(O)c(C)c3)n2)cc(C)c1O , please.
## Result < 50%

Turning to the following molecule.
## Task Tell me the measured inhibition at 30 min of COc1cc(-c2nnn(-c3cc(OC)c(O)c(OC)c3)n2)cc(OC)c1O , please.
## Result < 50%

---

study-system: CYP3A4 (Homo sapiens)
Construct: Using HLM as the enzyme source; from tissue; host or cells: human liver microsomes
Sequence (P08684 whole entry): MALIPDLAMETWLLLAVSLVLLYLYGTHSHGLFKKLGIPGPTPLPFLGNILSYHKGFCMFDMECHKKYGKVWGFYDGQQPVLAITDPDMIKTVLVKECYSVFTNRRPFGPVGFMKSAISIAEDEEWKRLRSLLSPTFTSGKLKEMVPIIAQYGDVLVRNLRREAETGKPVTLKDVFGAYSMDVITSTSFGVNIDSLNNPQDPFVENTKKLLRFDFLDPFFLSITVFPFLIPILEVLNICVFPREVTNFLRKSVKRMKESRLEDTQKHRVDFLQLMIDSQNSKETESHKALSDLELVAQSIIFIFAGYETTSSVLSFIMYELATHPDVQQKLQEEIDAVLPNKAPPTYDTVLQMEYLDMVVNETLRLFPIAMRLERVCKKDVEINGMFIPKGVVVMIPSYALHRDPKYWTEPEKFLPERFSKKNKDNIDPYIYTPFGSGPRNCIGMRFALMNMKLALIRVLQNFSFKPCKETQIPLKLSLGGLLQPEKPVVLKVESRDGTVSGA
assay-overview: CYP inhibition assay in HLM, single concentration
Assay type: biochemical
applied-conditions: human liver microsomes, probe Midazolam, n = 3, read-out: % Inhibition (CYP 3A4)
readout-type: inhibition at 10 min, 10 µM
Remember to put the unit after the number in your answer.

Answered cases to consult:
## Task Tell me the measured inhibition at 10 min, 10 µM of COc1cc(-c2nnn(-c3cc(OC)c(O)c(OC)c3)n2)cc(OC)c1O [223-2] , please.
## Result -6%

## Task Tell me the measured inhibition at 10 min, 10 µM of Cc1cc(-c2nnn(-c3cc(C)c(O)c(C)c3)n2)cc(C)c1O [223-3] , please.
## Result 96%

***
## Task Tell me the measured inhibition at 10 min, 10 µM of Oc1ccc(-c2nnn(-c3ccc(O)cc3)n2)cc1 [223-10] , please.
## Result 22%

---

study-system: CYP2C8 (Homo sapiens, UniProt P10632)
Construct: Using HLM as the enzyme source; from tissue; host or cells: human liver microsomes
Sequence (P10632 1-490): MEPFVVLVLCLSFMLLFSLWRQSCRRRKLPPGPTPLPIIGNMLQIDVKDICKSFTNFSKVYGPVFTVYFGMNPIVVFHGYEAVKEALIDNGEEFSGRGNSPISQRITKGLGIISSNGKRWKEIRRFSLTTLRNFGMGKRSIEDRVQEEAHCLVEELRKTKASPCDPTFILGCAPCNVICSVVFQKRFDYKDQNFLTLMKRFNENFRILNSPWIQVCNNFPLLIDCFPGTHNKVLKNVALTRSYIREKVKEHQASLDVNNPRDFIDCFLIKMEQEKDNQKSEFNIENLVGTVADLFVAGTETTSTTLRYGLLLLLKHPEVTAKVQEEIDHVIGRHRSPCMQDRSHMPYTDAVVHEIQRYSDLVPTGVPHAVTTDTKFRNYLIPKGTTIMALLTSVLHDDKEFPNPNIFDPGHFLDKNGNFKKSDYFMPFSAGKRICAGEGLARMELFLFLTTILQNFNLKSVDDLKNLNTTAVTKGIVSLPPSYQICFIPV
assay-overview: Single concentration Kobs assay (time-dependent inhibition) in HLM
Type: biochemical
applied-conditions: human, human liver microsomes; single concentration, 30 min; significant if >50%; read-out: 2C8 R_Inh% (reversible inhibition)
Method: CYP inhibition evaluation is typically performed by either IC50 at single-point or IC50 Shift or abbreviated assay such as the first-order inactivity rate constant (K obs ) at single concentration. This method yielded good correlations between the percent inhibition at 10 or 25 μ M and kinact/KI. Evaluation of TD inhibition at single concentration has been implemented in several drug discovery programs. […] The data obtained from single-concentration K obs studies were analyzed to understand the same. […]
Recorded inhibition at 30 min for the following compounds

Answered cases to consult:
## Task Tell me the measured inhibition at 30 min of Cc1cc(-c2nnn(-c3cc(C)c(O)c(C)c3)n2)cc(C)c1O [223-3] , please.
## Result < 50%

## Task Tell me the measured inhibition at 30 min of Oc1ccc(-c2nnn(-c3ccc(O)cc3)n2)cc1 [223-10] , please.
## Result < 50%

***
## Task Tell me the measured inhibition at 30 min of COc1cc(-c2nnn(-c3cc(OC)c(O)c(OC)c3)n2)cc(OC)c1O [223-2] , please.
## Result < 50%

---

study-system: CYP2C19 (Homo sapiens, UniProt P33261)
Construct: Using HLM as the enzyme source; from tissue; host or cells: human liver microsomes
Sequence (P33261 whole entry): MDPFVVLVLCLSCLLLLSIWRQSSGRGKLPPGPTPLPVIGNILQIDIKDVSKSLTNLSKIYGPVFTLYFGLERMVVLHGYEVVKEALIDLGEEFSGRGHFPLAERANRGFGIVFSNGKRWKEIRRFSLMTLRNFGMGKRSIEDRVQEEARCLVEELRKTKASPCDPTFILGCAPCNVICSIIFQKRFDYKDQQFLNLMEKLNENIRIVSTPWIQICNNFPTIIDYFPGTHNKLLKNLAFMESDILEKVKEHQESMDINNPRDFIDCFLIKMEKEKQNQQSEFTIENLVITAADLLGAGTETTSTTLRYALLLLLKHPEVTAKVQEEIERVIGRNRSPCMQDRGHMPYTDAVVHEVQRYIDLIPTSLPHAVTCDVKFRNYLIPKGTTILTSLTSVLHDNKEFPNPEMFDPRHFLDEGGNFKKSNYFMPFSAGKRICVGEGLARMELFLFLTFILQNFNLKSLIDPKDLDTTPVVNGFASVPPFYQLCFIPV
assay-overview: CYP inhibition assay in HLM, single concentration
Assay type: biochemical
applied-conditions: human liver microsomes, probe S-Mephenytoin, n = 3, read-out: % Inhibition (CYP 2C19)
readout-type: inhibition at 20 min, 10 µM (%)
Express the result in % but write the number alone.

Answered cases to consult:
## Task Tell me the measured inhibition at 20 min, 10 µM of COc1cc(-c2nnn(-c3cc(OC)c(O)c(OC)c3)n2)cc(OC)c1O , please.
## Result -2

## Task Tell me the measured inhibition at 20 min, 10 µM of Cc1cc(-c2nnn(-c3cc(C)c(O)c(C)c3)n2)cc(C)c1O , please.
## Result 84

Turning to the following compound.
## Task Tell me the measured inhibition at 20 min, 10 µM of Oc1ccc(-c2nnn(-c3ccc(O)cc3)n2)cc1 , please.
## Result 33

---

study-system: CYP2C9 (Homo sapiens)
Construct: Using HLM as the enzyme source; from tissue; host or cells: human liver microsomes
Sequence (P11712 whole entry): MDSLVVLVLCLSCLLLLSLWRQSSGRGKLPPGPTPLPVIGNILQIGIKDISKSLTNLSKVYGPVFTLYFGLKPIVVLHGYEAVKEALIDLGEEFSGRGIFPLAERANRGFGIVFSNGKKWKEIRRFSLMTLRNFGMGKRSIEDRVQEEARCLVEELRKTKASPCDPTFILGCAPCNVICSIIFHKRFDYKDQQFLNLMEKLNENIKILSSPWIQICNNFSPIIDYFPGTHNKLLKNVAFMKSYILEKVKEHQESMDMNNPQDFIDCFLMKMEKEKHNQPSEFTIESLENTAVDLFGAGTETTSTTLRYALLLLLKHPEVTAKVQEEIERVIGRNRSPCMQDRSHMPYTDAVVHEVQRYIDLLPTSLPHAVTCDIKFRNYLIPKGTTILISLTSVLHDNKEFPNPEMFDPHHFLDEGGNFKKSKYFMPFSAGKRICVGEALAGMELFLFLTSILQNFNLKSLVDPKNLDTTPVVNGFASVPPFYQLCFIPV
assay-overview: Single concentration Kobs assay (time-dependent inhibition) in HLM
Assay type: biochemical
applied-conditions: human, human liver microsomes; single concentration, 30 min; significant if >50%; read-out: 2C9 R_Inh% (reversible inhibition)
Recorded inhibition at 30 min for the following compounds

Answered cases to consult:
## Task Tell me the measured inhibition at 30 min of COc1cc(-c2nnn(-c3cc(OC)c(O)c(OC)c3)n2)cc(OC)c1O [223-2] , please.
## Result < 50%

## Task Tell me the measured inhibition at 30 min of Cc1cc(-c2nnn(-c3cc(C)c(O)c(C)c3)n2)cc(C)c1O [223-3] , please.
## Result < 50%

Turning to the following compound.
## Task Tell me the measured inhibition at 30 min of Oc1ccc(-c2nnn(-c3ccc(O)cc3)n2)cc1 [223-10] , please.
## Result < 50%
